# Tgt: T1, RBD derived from SARS-CoV-2 (Wuhan strain) (SARS-CoV-2 (Wuhan strain), UniProt P0DTC2 319-541)
# T1 construct: domain: RBD
# Experiment summary: RBD beads, antibody 4 µg/mL, then labelled ACE2, flow cytometry
Please provide measured fluorescence of ACE2 protein for the entries that follow.
Number only, please.

### Prompt // lookup fluorescence of ACE2 protein for Ab315 (antibody, V domains shown) VH: EVQLLESGGGLIQPGGSLRLSCAASGLIVSSNYMSWVRQAPGKGLEWVSVIYSGGSTYYADSVKGRFISSRDNSKNTLYLQMNSLRAEDTAVYYCARGELDLPYGMDVWGQGTTVTVSS VL: QAVVTQPPSVSAAPGQKVTISCSGSSSNIGNNYVSWYQQLPGTAPKLLICDTNKRPSGIPDRFSGSKSGTSATLGITGLQTGDEADYYCGTWDRSLSAGVFGGGTKLTVL
### Response 160

### Prompt // lookup fluorescence of ACE2 protein for Ab302 (antibody, V domains shown) VH: EVQLVESGGGLVQPGGSLRLSCAASGVIVSRNYMTWVRQAPGKGLEWVSVIYSGGSTFYADSVKGRFTISRDNSKNTLYLQMNSLRAEDTAVYYCARDRGEDVFDIWGQGTMVTVSS VL: DIQLTQSPSSLSASVGDRVTITCRASQGISSYLAWYQQKPGKAPKLLIYAASTLQSGVPSRFSGSGSGTDFTLTISSLQPEDFATYYCQQLNSYPGYTFGQGTKLEIK
### Response 189

### Prompt // lookup fluorescence of ACE2 protein for Ab376 (antibody, V domains shown) VH: EVQLVESGGGLVQPGGSLRLSCEASEFTLNSHYMNWVRQAPGKGLEWVSVIYSSGSTYYADSVKGRFTISRHNSKDTLYLQMNSLKPEDTAVYYCARPNYGGNSIWYFDLWGRGTLVTVSS VL: DIQMTQSPSSVSASVGDRVTITCRASQGIGSWLAWYQQTPGKAPKLLIYAASSLQSGVPSRFSGSGSGTDFTLTISSLQPEDFATYYCQQANSFPLTFGGGTKVEIK
### Response 45

### Prompt // lookup fluorescence of ACE2 protein for Ab369 (antibody, V domains shown) VH: QVQLVQSGAEVKKPGASVKVSCKASGYTLTNRAIHWVRQAPGQRLEWMGWINAGKGNTKYSQKFQGRVTITRDTSASTAYMELSSLKSEDTAFYYCATGDGYNYGYDSWGQGTLVTVSS VL: NFMLTQPPSVSVAPGKTARISCGGTNIGSKSVHWYQQKPGQAPVLVVHDDSDRPSGIPERFSASNSGNTATLTISRVEAGDEADYYCQVWDSTSDLPEVVFGGGTKLTVL
### Response 107

### Prompt // lookup fluorescence of ACE2 protein for Ab159 (antibody, V domains shown) VH: QVQLVESGGGLVKPGGSLRLSCAASGFTFNNAWMSWVRQAPGKGLEWVGRIKSKTDGGTTDYAAPVKGRFTFSRDDSKNTLYLQMSSLKTEDTALYYCTTADYDILTGTPASPYWGQGTLVTVSS VL: DIQMTQSPSSLSASVGDRVTITCRASQSITNYLNWYQQKPGKAPKFLIYAASSLQGGVPSRFRGSGSGTDFTLTISSLQPEDFATYYCQQTYSTLWTFGQGTKVEIK
### Response 78.3

### Prompt // lookup fluorescence of ACE2 protein for Ab176 (antibody, V domains shown) VH: EVQLVESGGGLVQPGGSLRLSCAASGFTFSSYSMNWVRQAPGKGLEWVSYISGSSSTIYYADSVKGRFTISRDNAKNSLYLQMNSLRAEDTAVYYCVSSEWLLPRFFDYWGQGTLVTVSS VL: QPVLTQEASVSGTVGQKVTLSCTGNRNNIGSYPVGWYQQISHGAPKTVMFGNSPPSGIPDRFFGSRSGTTASLTISGLQPEDEADYYCSTWDYSLSAVVFGGGTKLTVL
### Response 366

### Prompt // lookup fluorescence of ACE2 protein for Ab287 (antibody, V domains shown) VH: QVQLVQSGAEVKKPGSSVKVSCKASGDTFSSYAISWVRQAPGQGLEWMGRIILIFGVANYAQKFQGRVTITADKSTSTAYMELSSLRSEDTAVYYCARGGFYYDSSGYHLDYWGQGTLVTVSS VL: EIVLTQSPGTLSLSPGERATLSCRPSQSVSSSYLAWYQQRPGQAPRLLIYGASSRATGIPDRFSGSGSGTDFTLTISRLEPEDFAVYYCHQYGSSPRTFGQGTKVEIK
### Response 32.6

### Prompt // lookup fluorescence of ACE2 protein for Ab496 (antibody, V domains shown) VH: EVQLVQSGPEVKKPGTSVKVSCKASGFIFTNSAVQWVRQARGQRLEWIGWIVVGSGNPNYAQKFQERVTITRDRSTSTAYMELSSLTSEDTAVYYCAAFPYYYDNSGSGPWGQGTLVTVSS VL: DIQLTQSPSSLSASVGDRVTITCQASQDIRNNLNWYQQIPGKAPKLLIYDASNLETGVPSRFSGSASGTDFTFTISSLQPEDVATYYCQQYANLPPFTFGPGTKVDIK
### Response 41.7

### Prompt // lookup fluorescence of ACE2 protein for Ab354 (antibody, V domains shown) VH: QVQLVQSGAEVKKPGASVTVSCKASGFLFTGYYMHWVRQAPGQGLEWMGWINPNSGASNYTRKFQGRVTMTRDTSISATYMKLSRLTSDDTAVYYCARDLAFSMVRGALDYWGQGTLVTVSS VL: QLVLTQPPSASGSPGQSVTISCTGTSSDVGGYNYVSWYQHHPGKAPKLMIYEVSKRPSGVPDRFSGSKSGNTASLTVSGLQAEDEADYYCNSYAGNNNWVFGTGTKVTVL
### Response 42.9
